EXPERIMENTAL PROTOCOL: Example 18 Part 2: multiple dose PK (20 mg QID) of 3,4-DAP and 3-N-acetyl metabolite in slow and fast acetylators
Assay type: in vivo, human
CONDITION LABEL: both sexes, human, plasma, oral, 20 mg, Day 1, Dose 1, slow acetylators, 20 mg QID; read-out: Mean t1/2 (converted)
ATTRIBUTE MEASURED: half-life (h)
API: value field is a number in h; no unit string.

-- ask Would you mind telling me what half-life value was observed for Nc1ccncc1N [3,4-DAP, 3,4-diaminopyridine] ?
-- reply 1.39

* * *

EXPERIMENTAL PROTOCOL: Example 18 Part 2: multiple dose PK (20 mg QID) of 3,4-DAP and 3-N-acetyl metabolite in slow and fast acetylators
Format: in vivo, human
CONDITION LABEL: both sexes, human, plasma, oral, 20 mg, Day 1, fast acetylators, Dose 4 interval, 20 mg QID, arith. mean; read-out: t1/2 (converted)
ATTRIBUTE MEASURED: half-life
Dear colleague, please send the value followed by its unit.

-- ask Would you mind telling me what half-life value was observed for CC(=O)Nc1cnccc1N [3-N-acetyl amifampridine, N-(4-aminopyridin-3-yl)acetamide] ?
-- reply 3.93 h
